- ASSAY TARGET: Aromatase (Homo sapiens)
- Sequence (P11511 whole entry): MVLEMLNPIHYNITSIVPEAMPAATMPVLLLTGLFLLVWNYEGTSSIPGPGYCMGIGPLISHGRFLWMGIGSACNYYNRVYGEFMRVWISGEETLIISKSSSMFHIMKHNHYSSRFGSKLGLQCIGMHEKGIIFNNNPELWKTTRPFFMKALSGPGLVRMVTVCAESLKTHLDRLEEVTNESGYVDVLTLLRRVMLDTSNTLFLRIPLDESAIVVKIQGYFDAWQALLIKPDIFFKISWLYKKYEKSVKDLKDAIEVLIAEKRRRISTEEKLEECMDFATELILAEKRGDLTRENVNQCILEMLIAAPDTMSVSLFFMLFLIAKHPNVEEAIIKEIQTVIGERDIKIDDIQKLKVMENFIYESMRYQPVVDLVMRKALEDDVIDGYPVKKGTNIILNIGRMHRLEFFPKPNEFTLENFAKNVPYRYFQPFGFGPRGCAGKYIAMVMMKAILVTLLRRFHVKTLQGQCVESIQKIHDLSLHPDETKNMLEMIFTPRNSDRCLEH
- EXPERIMENTAL DETAILS: Inhibitory concentration against aromatase protein from human placental microsomes using [1-beta-3H]-androstenedione; Competitive inhibition
Provide the recorded pIC50 for the entries that follow.
Give bare numbers, as −log10 of the molar value.

[
  {
    "COMPOUND": "C[C@]12CCC(=O)C(O)=C1CC[C@@H]1[C@@H]2CC[C@]2(C)C(=O)CC[C@@H]12",
    "ASSAY TARGET": "Aromatase (Homo sapiens)",
    "MEASURE NAME": "pIC50",
    "MEASURED": 7.38
  },
  {
    "COMPOUND": "C[C@]12CCC3C(CC[C@H]4C=CCC[C@]34C)C1CCC2=O (some centres undefined)",
    "ASSAY TARGET": "Aromatase (Homo sapiens)",
    "MEASURE NAME": "pIC50",
    "MEASURED": 6.65
  }
]

Dear reader, for each entry below, please note its pIC50.
1. C[C@]12CC[C@H]3O[C@H]3[C@@H]1CC[C@@H]1[C@@H]2CC[C@]2(C)C(=O)CC[C@@H]12
2. C[C@]12CC[C@@H](O)C(=O)[C@@H]1CC[C@@H]1[C@@H]2CC[C@]2(C)C(=O)CC[C@@H]12

Reply |
[6.84, 6.17]
